- target.under.test: PARP7 (Homo sapiens (Human))
- Sequence (Q7Z3E1 whole entry): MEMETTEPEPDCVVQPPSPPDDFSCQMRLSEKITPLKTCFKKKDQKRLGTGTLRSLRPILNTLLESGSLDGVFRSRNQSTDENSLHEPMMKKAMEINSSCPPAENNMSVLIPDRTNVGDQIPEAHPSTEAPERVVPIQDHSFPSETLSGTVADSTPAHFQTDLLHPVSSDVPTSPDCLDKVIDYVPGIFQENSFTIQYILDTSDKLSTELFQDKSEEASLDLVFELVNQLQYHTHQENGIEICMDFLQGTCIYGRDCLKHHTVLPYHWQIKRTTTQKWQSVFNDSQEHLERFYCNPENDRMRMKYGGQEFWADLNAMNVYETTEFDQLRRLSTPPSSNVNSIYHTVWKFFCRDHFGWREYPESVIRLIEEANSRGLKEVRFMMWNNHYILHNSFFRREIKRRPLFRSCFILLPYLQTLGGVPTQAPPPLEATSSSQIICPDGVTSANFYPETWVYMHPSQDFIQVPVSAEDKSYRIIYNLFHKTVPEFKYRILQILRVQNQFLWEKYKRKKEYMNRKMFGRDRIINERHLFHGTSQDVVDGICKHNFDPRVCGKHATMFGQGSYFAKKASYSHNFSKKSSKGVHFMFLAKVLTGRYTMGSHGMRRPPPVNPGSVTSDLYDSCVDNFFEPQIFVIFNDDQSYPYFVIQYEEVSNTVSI
- procedure.details: TR-FRET assay: displacement of biotinylated Probe A from the TIPARP active site (Enzymatic Assay for Inhibition of PARP7)
- Type: binding
- experimental.setup: TIPARP 6 nM, Probe A 2 nM, 25° C.
# IC50 listing for each entry below
attribute.measured: IC50

O=C1[C@H](OC[C@H](CO)Nc2cn[nH]c(=O)c2C(F)(F)F)CCN1C1CCN(c2ncc(C(F)(F)F)cn2)CC1 [Example 63] = < 100 nM
COC[C@@H](CO[C@@H]1CCN(C2CCN(c3ncc(C(F)(F)F)cn3)CC2)C1=O)Oc1cn[nH]c(=O)c1C(F)(F)F [Example 51B] = < 100 nM
C[C@@H](CO[C@H]1CCN(C2CCN(c3ncc(C(F)F)cn3)CC2)C1=O)Nc1cn[nH]c(=O)c1C(F)(F)F [Example 15A] = 100 to 1000 nM
C[C@@H](COCC(=O)N(C)C1CCN(c2ncc(C(F)(F)F)cn2)CC1)Oc1cn[nH]c(=O)c1Br [Example 28] = < 100 nM
C[C@@H](CO[C@@H]1CCN(C2CCN(c3ncc(C(F)(F)F)cn3)CC2)C1=O)Oc1cn[nH]c(=O)c1Cl [Example 47B] = < 100 nM
C[C@@H](CO[C@@H]1CCN([C@H]2[C@@H]3CN(c4ncc(C(F)(F)F)cn4)C[C@@H]32)C1=O)Nc1cn[nH]c(=O)c1C(F)(F)F [Example 43] = < 100 nM
COC[C@@H](CO[C@@H]1CCN(C2CCN(c3ccc(C#N)cn3)CC2)C1=O)Oc1cn[nH]c(=O)c1C(F)(F)F [Example 50B] = < 100 nM
C[C@@H](COCC(=O)N(C)C1CCN(c2ncc(C(F)(F)F)cn2)CC1)Nc1cn[nH]c(=O)c1C(F)(F)F [Example 2] = < 100 nM
COC[C@@H](CO[C@H]1CCN(C2CCN(c3ccc(C#N)cn3)CC2)C1=O)Oc1cn[nH]c(=O)c1C(F)(F)F [Example 50A] = 100 to 1000 nM
C[C@@H](CO[C@H]1CCN(C2CCN(c3ncc(C(F)(F)F)cn3)CC2)C1=O)Oc1cn[nH]c(=O)c1C(F)(F)F [Example 20A] = < 100 nM
C[C@@H](CO[C@@H]1CCN([C@@H]2CCN(c3ncc(C(F)(F)F)cn3)C[C@@H]2F)C1=O)Nc1cn[nH]c(=O)c1C(F)(F)F (single isomer, unassigned) [Example 39A] = < 100 nM
C[C@@H](CO[C@@H]1CCCN(C2CCN(c3ncc(C(F)(F)F)cn3)CC2)C1=O)Nc1cn[nH]c(=O)c1C(F)(F)F [Example 34B] = < 100 nM
CC(=O)NC[C@@H](CO[C@@H]1CCN(C2CCN(c3ncc(C(F)(F)F)cn3)CC2)C1=O)Nc1cn[nH]c(=O)c1C(F)(F)F [Example 66] = < 100 nM
